Test system: downy bromegrass (Bromus tectorum)
Experiment: Test B pre-/postemergence plant response
Type: in vivo
Conditions: Preemergence, 31 g ai/ha; 0 to 100 scale, 0 no effect, 100 complete control
Observed Property: Plant response rating, Bromegrass, Downy

[
  {
    "Entry Smiles": "CCc1cc(-c2ccc(F)cc2)nn1-c1c(O)cnn(C)c1=O",
    "Target Entity": "downy bromegrass (Bromus tectorum)",
    "Observed Property": "Plant response rating, Bromegrass, Downy",
    "Result": 0
  },
  {
    "Entry Smiles": "Cc1cc(-c2ccc(C(F)(F)F)cc2)nn1-c1c(OC(=O)C(C)(C)C)cnn(C)c1=O",
    "Target Entity": "downy bromegrass (Bromus tectorum)",
    "Observed Property": "Plant response rating, Bromegrass, Downy",
    "Result": 0
  },
  {
    "Entry Smiles": "Cc1cc(-c2ccc(Cl)cc2)nn1-c1c(OS(C)(=O)=O)cnn(C)c1=O",
    "Target Entity": "downy bromegrass (Bromus tectorum)",
    "Observed Property": "Plant response rating, Bromegrass, Downy",
    "Result": 50
  },
  {
    "Entry Smiles": "CCc1cc(-c2ccc(Cl)cc2)nn1-c1c(OC(=O)OC(C)C)cnn(C)c1=O",
    "Target Entity": "downy bromegrass (Bromus tectorum)",
    "Observed Property": "Plant response rating, Bromegrass, Downy",
    "Result": 75
  },
  {
    "Entry Smiles": "Cc1cc(-c2ccc(Cl)cc2)nn1-c1c(OS(=O)(=O)c2ccccc2[N+](=O)[O-])cnn(C)c1=O",
    "Target Entity": "downy bromegrass (Bromus tectorum)",
    "Observed Property": "Plant response rating, Bromegrass, Downy",
    "Result": 45
  },
  {
    "Entry Smiles": "Cc1cc(-c2ccc(Br)cc2)nn1-c1c(O)cnn(C)c1=O",
    "Target Entity": "downy bromegrass (Bromus tectorum)",
    "Observed Property": "Plant response rating, Bromegrass, Downy",
    "Result": 70
  },
  {
    "Entry Smiles": "Cc1cc(-c2ccc(Cl)cc2)nn1-c1c(OC(=O)C(C)C)cnn(C)c1=O",
    "Target Entity": "downy bromegrass (Bromus tectorum)",
    "Observed Property": "Plant response rating, Bromegrass, Downy",
    "Result": 55
  }
]

----------
Recorded Plant response rating, Barnyardgrass by entry
Test system: barnyardgrass (Echinochloa crus-galli)
Assay: Test B flooded paddy test plant response
Type: in vivo
Conditions: Flood, 31 g ai/ha; scale 0 to 100
Observed Property: Plant response rating, Barnyardgrass

[
  {
    "Entry Smiles": "CCc1cc(-c2ccc(Cl)cc2)nn1-c1c(OS(C)(=O)=O)cnn(C)c1=O",
    "Observed Property": "Plant response rating, Barnyardgrass",
    "Result": 0
  },
  {
    "Entry Smiles": "CCc1cc(-c2ccc(C(F)(F)F)cc2)nn1-c1c(O)cnn(CC)c1=O",
    "Observed Property": "Plant response rating, Barnyardgrass",
    "Result": 0
  },
  {
    "Entry Smiles": "Cc1cc(-c2ccc(OC(F)(F)F)cc2)nn1-c1c(OC(=O)OC(C)C)cnn(C)c1=O",
    "Observed Property": "Plant response rating, Barnyardgrass",
    "Result": 0
  },
  {
    "Entry Smiles": "Cc1cc(-c2ccc(Cl)cc2)nn1-c1c(OS(C)(=O)=O)cnn(C)c1=O",
    "Observed Property": "Plant response rating, Barnyardgrass",
    "Result": 0
  },
  {
    "Entry Smiles": "CCc1cc(-c2ccc(C(F)(F)F)cc2)nn1-c1c(OS(C)(=O)=O)cnn(C)c1=O",
    "Observed Property": "Plant response rating, Barnyardgrass",
    "Result": 0
  },
  {
    "Entry Smiles": "Cc1cc(-c2ccc(Cl)cc2)nn1-c1c(OC(=O)C(C)C)cnn(C)c1=O",
    "Observed Property": "Plant response rating, Barnyardgrass",
    "Result": 40
  },
  {
    "Entry Smiles": "Cc1nn(-c2ccc(Cl)cc2)cc1-c1c(O)cnn(C)c1=O",
    "Observed Property": "Plant response rating, Barnyardgrass",
    "Result": 0
  },
  {
    "Entry Smiles": "COC(=O)Oc1cnn(C)c(=O)c1-n1nc(-c2ccc(Cl)cc2)cc1C",
    "Observed Property": "Plant response rating, Barnyardgrass",
    "Result": 30
  }
]
